target: human VR1 (Homo sapiens, UniProt Q8NER1); construct: expressed in transfected cells; host or cells: HEK293; experiment: Human VR1 functional assay (FLIPR intracellular Ca2+); format: cell-based; conditions: inhibition of capsaicin response, 10 μM; read-out: h % I (10 μM)
Sequence (Q8NER1 whole entry): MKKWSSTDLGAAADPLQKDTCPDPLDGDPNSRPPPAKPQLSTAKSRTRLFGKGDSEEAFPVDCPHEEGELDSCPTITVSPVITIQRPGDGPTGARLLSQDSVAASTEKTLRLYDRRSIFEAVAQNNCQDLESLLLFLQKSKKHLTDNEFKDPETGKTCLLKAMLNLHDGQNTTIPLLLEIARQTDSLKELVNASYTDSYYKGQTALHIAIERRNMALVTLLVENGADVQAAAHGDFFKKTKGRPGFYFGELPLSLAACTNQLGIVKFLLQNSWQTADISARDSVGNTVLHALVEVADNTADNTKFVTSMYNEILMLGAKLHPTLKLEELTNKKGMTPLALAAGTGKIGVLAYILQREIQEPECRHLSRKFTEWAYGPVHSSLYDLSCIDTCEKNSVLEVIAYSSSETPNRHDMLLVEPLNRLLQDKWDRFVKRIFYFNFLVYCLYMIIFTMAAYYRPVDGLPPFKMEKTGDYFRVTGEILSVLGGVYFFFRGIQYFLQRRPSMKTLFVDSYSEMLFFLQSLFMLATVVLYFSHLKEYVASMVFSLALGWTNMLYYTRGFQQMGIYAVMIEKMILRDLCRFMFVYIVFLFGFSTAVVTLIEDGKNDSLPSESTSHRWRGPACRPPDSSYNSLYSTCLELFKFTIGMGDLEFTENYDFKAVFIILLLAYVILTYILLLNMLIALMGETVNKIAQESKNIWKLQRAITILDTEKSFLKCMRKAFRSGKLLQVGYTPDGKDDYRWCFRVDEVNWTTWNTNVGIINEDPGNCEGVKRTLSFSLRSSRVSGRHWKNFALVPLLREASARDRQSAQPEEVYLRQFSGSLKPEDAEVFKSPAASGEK
Where inhibition at 10 µM equals or exceeds 40%, the correct label is criterion met; where it does not, the label is criterion not met.

Previously resolved entries follow.
Please tell me: is the compound CC(C)(C)c1ccc(CCC(=O)Nc2ccc(-c3ccc(CO)cc3)cc2)cc1 [Cpd 24] at or over 40% in terms of inhibition at 10 µM?
criterion not met

For this compound, is measured inhibition at 10 µM 40% or higher? CC(C)(C)c1ccc(CCC(=O)Nc2ccc(-c3cccc([N+](=O)[O-])c3)cc2)cc1 [Cpd 11]
criterion not met

Hi team, for COC(=O)c1cccc(-c2ccc(NC(=O)CCc3ccc(C(C)(C)C)cc3)cc2)c1 [Cpd 29] , is the recorded inhibition at 10 µM at or above 40%?
criterion not met

Say whether CC(C)(C)c1ccc(CCC(=O)Nc2ccc(-c3cccc(NCCO)c3)cc2)cc1 [Cpd 46] shows inhibition at 10 µM of 40% or more.
criterion met

New cases:
Confirm if inhibition at 10 µM reported for the compound CC(C)(C)c1ccc(CCC(=O)Nc2ccc(-c3cccc(C(N)=O)c3)cc2)cc1 [Cpd 31] is 40% or above.
criterion not met

# bool: inhibition at 10 µM of CC(C)(C)c1ccc(CCC(=O)Nc2ccc(-c3ccc(O)cc3)cc2)cc1 [Cpd 3] >= 40%
criterion met
